# MEASURED ON: Sterol O-acyltransferase 1 (Rattus norvegicus, UniProt O70536)
# Sequence (O70536 whole entry): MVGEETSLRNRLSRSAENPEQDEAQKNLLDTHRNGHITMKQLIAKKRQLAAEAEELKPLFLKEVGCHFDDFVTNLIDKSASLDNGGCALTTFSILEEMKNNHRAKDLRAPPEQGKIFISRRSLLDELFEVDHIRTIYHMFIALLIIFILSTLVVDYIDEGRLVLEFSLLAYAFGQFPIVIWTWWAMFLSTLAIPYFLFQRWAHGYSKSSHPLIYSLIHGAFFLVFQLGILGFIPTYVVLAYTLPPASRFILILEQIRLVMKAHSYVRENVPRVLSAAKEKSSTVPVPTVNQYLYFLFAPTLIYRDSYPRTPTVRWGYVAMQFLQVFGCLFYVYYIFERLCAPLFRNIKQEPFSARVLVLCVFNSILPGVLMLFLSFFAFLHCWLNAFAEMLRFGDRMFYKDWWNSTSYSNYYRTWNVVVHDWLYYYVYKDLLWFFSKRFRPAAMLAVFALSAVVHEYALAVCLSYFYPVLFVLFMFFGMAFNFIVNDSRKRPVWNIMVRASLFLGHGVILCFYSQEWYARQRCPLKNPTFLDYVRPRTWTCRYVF
# ASSAY NAME: Compound was evaluated for the Acyl coenzyme A:cholesterol acyltransferase inhibition using microsomes isolated from the livers of cholesterol fed rats.
# Parameters: species or system Liver
pIC50: −log10 of the molar value.
EXPERIMENTAL READOUT: pIC50

INSERT INTO results (molecule, measured_on, experimental_readout, experimental_value) VALUES
  ('CCCCCCCN(CCCCCSc1nc(-c2ccccc2)c(-c2ccccc2)[nH]1)C(=O)Nc1ccc(F)cc1F [LECIMIBIDE]', 'Sterol O-acyltransferase 1 (Rattus norvegicus, UniProt O70536)', 'pIC50', 7.74);
